Parameter TGI: see the listing below.
- Test system: IGROV1 ovarian
- Method: NCI tumour cell line growth inhibition, 48 h
Assay Readout: TGI

[[record]]
compound = "CCOC(=O)/C=C1/C(CCCOCc2ccccc2)C2CCCC23CC2(CCN13)OCCO2 (stereo unspecified)"
measured_result = "> 100 µM"

[[record]]
compound = "CN1CCN(Cc2cc3c(nn2)-c2ccccc2C3=O)CC1"
measured_result = "> 100 µM"

[[record]]
compound = "Cc1ccsc1/C=N/Nc1cnccn1"
measured_result = "> 100 µM"

[[record]]
compound = "COC(=O)c1ccccc1CC1Cc2cccc(C)c2C1=O (stereo unspecified)"
measured_result = "> 100 µM"

[[record]]
compound = "CCOC(=O)c1c(C)c2c(n1Cc1ccccc1)CSCC2=O"
measured_result = "> 100 µM"

[[record]]
compound = "CC(C)Oc1cccc(N2C(=NCc3c[nH]c4ccccc34)Nc3ccncc3S2(=O)=O)c1"
measured_result = "> 100 µM"


###

- System: NCI-H460 lung
- Method: NCI tumour cell line growth inhibition, 48 h
Where a SMILES comes first, the peptide text is derived from it. [ ]: non-standard residue; d: D form. The star is where a group is joined. Cbz = O=C(OCc1ccccc1)*; Aib = CC(C)(N)C(=O)O; OBn = c1ccc(CO*)cc1
Would you mind labelling by TGI? At or over 5 µM is Criterion met, under is Criterion not met.

[[record]]
molecule = "Cc1nc2sccn2c1-c1nc2sccn2c1/C=C1/C(=O)Nc2ccccc21"
assigned_category = "Criterion met"

[[record]]
molecule = "CC(NC(=O)C(C)(C)NC(=O)C(CC(=O)OCc1ccccc1)NC(=O)OCc1ccccc1)C(N)=O (stereo not given) (Cbz-Asp(OBn)-[Aib]-Ala-NH2; configuration not given here)"
assigned_category = "Criterion met"

[[record]]
molecule = "O=[N+]([O-])c1cccnc1N=Nc1c(O)[nH]c2ccccc12"
assigned_category = "Criterion met"

[[record]]
molecule = "CN1CCN(Cc2cc3c(nn2)-c2ccccc2C3=O)CC1"
assigned_category = "Criterion met"

[[record]]
molecule = "C=CC12CCN(CC1)C(C(O)c1ccnc3ccc(OC)cc13)C2 (stereo not given)"
assigned_category = "Criterion met"

[[record]]
molecule = "CN1Cc2c(nc(-c3ccccc3)c[n+]2[O-])N(C)C1"
assigned_category = "Criterion met"

[[record]]
molecule = "O=C1c2cccc3cccc(c23)C(=O)N1CCN(CCO)CCO"
assigned_category = "Criterion met"

[[record]]
molecule = "O=C1CSC2(CC(/C=C/c3cccs3)=NN2c2cccc(S(=O)(=O)O)c2)N1c1nc2ccccc2s1 (stereo not given)"
assigned_category = "Criterion met"

[[record]]
molecule = "CC(C)(CO)CNc1nc(N)nc(Cl)c1/C=N/O"
assigned_category = "Criterion met"

[[record]]
molecule = "Cc1cc(C(=O)CSC(=S)SC(C)(C)C)ccc1Cl"
assigned_category = "Criterion met"

[[record]]
molecule = "COc1cccc2c1OC(c1cccc3ccccc13)C([N+](=O)[O-])=C2 (stereo not given)"
assigned_category = "Criterion not met"

[[record]]
molecule = "COc1cc(C2c3cc4c(cc3[C@@H](Nc3ccccc3)C3COC(=O)[C@H]23)OCO4)cc(OC)c1O (stereo not given in full)"
assigned_category = "Criterion not met"

[[record]]
molecule = "CNCCCNc1ccnc2cc(Cl)ccc12"
assigned_category = "Criterion met"

[[record]]
molecule = "CC1(C)CCc2c(ccc(C(=O)/C=C/c3ccc(O)cc3)c2O)O1"
assigned_category = "Criterion met"

[[record]]
molecule = "O=C1N(Cc2ccccc2)C2CSCC2N1Cc1ccccc1 (stereo not given)"
assigned_category = "Criterion met"

[[record]]
molecule = "CCCCCCn1c(-c2ccc(C(=O)O/N=C(\\N)c3ccc4c(c3)OCO4)cc2)nc(-c2ccccc2)c1-c1ccccc1"
assigned_category = "Criterion not met"

[[record]]
molecule = "[N-]=[N+]=CC(=O)OC(CCl)CCl"
assigned_category = "Criterion met"

[[record]]
molecule = "CSc1nc2c(c(N(C)C)n1)C(O)n1c(nc3ccccc31)S2 (stereo not given)"
assigned_category = "Criterion met"

[[record]]
molecule = "O=c1cccc(C#CC#C[C@@H]2O[C@H]2CO)o1"
assigned_category = "Criterion not met"

